Attribution: patent US9353075B2

Parameter: inhibition at 3 µM. Scope: all listed entries.
# STUDY_SYSTEM: r-NAAA (Rattus norvegicus (Rat))
# Sequence (Q5KTC7 34-362): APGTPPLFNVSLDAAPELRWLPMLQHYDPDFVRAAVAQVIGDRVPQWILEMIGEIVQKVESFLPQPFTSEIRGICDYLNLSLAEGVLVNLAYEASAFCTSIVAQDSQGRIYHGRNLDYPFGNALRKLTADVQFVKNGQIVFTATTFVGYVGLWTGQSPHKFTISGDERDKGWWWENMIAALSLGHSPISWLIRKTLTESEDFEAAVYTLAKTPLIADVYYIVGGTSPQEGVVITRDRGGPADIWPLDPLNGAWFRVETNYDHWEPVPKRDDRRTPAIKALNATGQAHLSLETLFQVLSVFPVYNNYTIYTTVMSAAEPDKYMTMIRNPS
# METHOD: r-NAAA inhibition, rat lung lysosomal NAAA preparation, UPLC/MS
# Type: biochemical
# STUDY_CONDITIONS: read-out: r-NAAA % inhib. @ 3 μM
Write the number in % without appending the unit.

The recorded inhibition at 3 µM for CC[C@H]1OC(=O)[C@@H]1NC(=O)OCc1ccc(-c2ccccc2)cc1 (relative stereo) is 100

get_value(item= CC[C@@H]1OC(=O)[C@@H]1NC(=O)OCc1ccc(-c2ccccc2)cc1 (relative stereo) , readout=inhibition at 3 µM) returns 100

Looking up CC(C)(C)[C@@H]1OC(=O)[C@@H]1NC(=O)OCc1ccc(-c2ccccc2)cc1 (relative stereo) , I found its inhibition at 3 µM recorded as 57

###

# STUDY_SYSTEM: r-NAAA (Rattus norvegicus (Rat))
# METHOD: r-NAAA inhibition, rat lung lysosomal NAAA preparation, UPLC/MS
# Format: biochemical
# STUDY_CONDITIONS: read-out: r-NAAA % inhib. @ 3 μM
# Description: Lysosomal NAAA protein preparation were obtained by homogenizing male Sprague-Dawley rat lungs (Charles River) in 20 mM Tris-HCl buffer pH 7.4 containing 0.32M sucrose. Samples were centrifuged at 800×g for 15 minutes at 4° C. […] NAAA protein preparation was pre-incubated with various concentrations of test compounds or vehicle control in 100 mM NaH2PO4/Citrate buffer, 1% Triton-X, 3 mM DTT (pH 4.5) for 30 minutes at 37° C. […] Samples were then analyzed by UPLC/MS (Acquity, Waters). […]
RESULT_TYPE: inhibition at 3 µM (%)
Write it as a number; the unit % goes unstated.

Examples with answers:
CC(C)[C@@H]1OC(=O)[C@@H]1NC(=O)OCc1ccc(-c2ccccc2)cc1 (relative stereo) [Example 54]; 53
CC(C)(C)[C@@H]1OC(=O)[C@@H]1NC(=O)OCCCCCc1ccccc1 (relative stereo) [Example 58]; 67
CC(C)[C@H]1OC(=O)[C@@H]1NC(=O)OCCCCCc1ccccc1 (relative stereo) [Example 51]; 92

Now for another entry.
Per the record, CC(C)[C@H]1OC(=O)[C@@H]1NC(=O)OCc1ccc(-c2ccccc2)cc1 (relative stereo) [Example 52] has inhibition at 3 µM of 93

###

# STUDY_SYSTEM: UniProt Q6P7S1
# Sequence (Q6P7S1 21-394): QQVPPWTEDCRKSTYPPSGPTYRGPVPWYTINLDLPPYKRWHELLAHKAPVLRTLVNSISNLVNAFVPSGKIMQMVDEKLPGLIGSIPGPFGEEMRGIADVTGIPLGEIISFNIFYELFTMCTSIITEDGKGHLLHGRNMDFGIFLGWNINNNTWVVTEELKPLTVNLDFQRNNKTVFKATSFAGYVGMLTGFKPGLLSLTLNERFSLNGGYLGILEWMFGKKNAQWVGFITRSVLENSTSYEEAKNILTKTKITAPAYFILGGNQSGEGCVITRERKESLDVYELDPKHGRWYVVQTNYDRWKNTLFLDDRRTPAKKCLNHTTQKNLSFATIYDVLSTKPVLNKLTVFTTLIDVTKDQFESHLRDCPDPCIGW
# METHOD: Acid ceramidase inhibition, recombinant rat AC, LC-MS
# Type: biochemical
# STUDY_CONDITIONS: read-out: r-AC % inhib. @ 10 μM
# Experimental: The PCR (High Fidelity PCR Master, Roche) product was subcloned into a pEF6-[…] vector (Invitrogen) to construct a mammalian expression vector encoding […]-tagged rat AC. HEK293 cells were transfected with pEF6-rAC-[…] using Super-Fect reagent (Qiagen) and screened with G418 (0.3 mg/mL). […] Protein concentration was measured using the bicinchoninic acid (BCA) assay (Pierce). […] We monitored [M-H]- in the selected-ion monitoring (SIM) mode using HDA as internal standard. […]
Listing of entries alongside the reported inhibition at 10 µM.

Completed entries (count: 3):
C[C@@H]1OC(=O)[C@@H]1NC(=O)OCCCCCC1CCCCC1 [Example 35]; < 10%
C[C@@H]1OC(=O)[C@@H]1NC(=O)OCCCOCc1ccccc1 [Example 18]; < 10%
CCCCCCC[C@H](C)OC(=O)N[C@H]1C(=O)O[C@H]1C [Example 7]; 45%

Form: molecule = C[C@@H]1OC(=O)[C@@H]1NC(=O)CCCCCCc1ccccc1 [corresponding amide analog, reference compound] ; inhibition at 10 µM = < 10%

Noted for C[C@@H]1OC(=O)[C@@H]1NC(=O)OCCCCCc1ccccc1 [Example 6] : its inhibition at 10 µM reads < 10%
